biological target: Glyceraldehyde-3-phosphate dehydrogenase (Homo sapiens)
Sequence (P04406 whole entry): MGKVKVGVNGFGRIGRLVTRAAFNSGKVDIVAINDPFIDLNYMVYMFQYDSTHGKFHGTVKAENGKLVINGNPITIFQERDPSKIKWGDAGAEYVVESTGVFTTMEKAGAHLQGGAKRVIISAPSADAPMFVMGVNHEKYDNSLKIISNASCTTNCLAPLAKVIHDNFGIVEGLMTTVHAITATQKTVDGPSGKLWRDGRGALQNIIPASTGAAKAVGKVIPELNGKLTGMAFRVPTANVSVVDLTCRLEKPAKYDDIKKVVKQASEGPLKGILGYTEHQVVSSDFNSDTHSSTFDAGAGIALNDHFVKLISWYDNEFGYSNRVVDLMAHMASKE
Activity calls are given as the source filed them.
quantity.name: IC50

Below, each entry is followed by its recorded IC50 result.
# compound, IC50
measured = [
    ("O=C1C2CC=CCC2C(=O)N1c1nc(-c2cccnc2)n[nH]1 (stereo not given)", "> 100 µM (not active)"),
    ("O=S(=O)(Nc1cnc2ccccc2c1)c1ccc(F)cc1", "> 100 µM (not active)"),
    ("CCN1CCN(C2=C(Cl)C(=O)N(c3ccnc(Cl)c3)C2=O)CC1", "> 50 µM (inconclusive)"),
    ("Cc1ccccc1-n1cnnc1SCC(=O)N1CCN(c2ccccc2)CC1", "36.3 µM (active)"),
]

Field IC50 (Glyceraldehyde-3-phosphate dehydrogenase (Homo sapiens)), entry CC1NC(C)C(C)N(C2=C(Cl)C(=O)N(c3ccc(Cl)c(Cl)c3)C2=O)C1C (stereo not given) : > 100 µM (not active)

---

test system: Streptococcus; experiment: Group A Streptococcus viability loss, dose response, counter-screen for streptokinase expression inhibitor project, luminescence, BacTiterGlo (AID 1915); type: functional, organism-based;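 note: potency for reduction of bacterial viability or growth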
The source made the active and inactive calls.
quantity.name: EC50

Record excerpt, results attached:
# compound.smiles, subject.of.test, EC50
data = [
    ("CCN(c1ccc(C)cc1C)S(=O)(=O)c1nnc(NC(=O)c2ccco2)s1", "Streptococcus", "43.1 µM (active)"),
    ("O=C(Nc1nc2ccc(F)cc2s1)c1ccccn1", "Streptococcus", "10.1 µM (active)"),
    ("Cc1ccc(/C=C/C(=O)C2C(=O)c3ccccc3C2=O)cc1", "Streptococcus", "9.64 µM (active)"),
    ("C/C(=N\\NS(=O)(=O)c1ccc(C)cc1)c1ccc(C)o1", "Streptococcus", "> 150 µM (not active)"),
    ("Cc1ccc(N/N=C(\\C=O)C(=O)c2ccc(Cl)cc2)cc1", "Streptococcus", "14.8 µM (active)"),
]

// below: EC50 requested for another compound
Per the record, N=C1/C(=C\c2ccc(OC(=O)c3ccccc3Cl)cc2)C(=O)N=C2SC(N3CCOCC3)=NN12 has EC50 of > 150 µM (not active)

---

molecular target: Orexin/Hypocretin receptor type 1 (Homo sapiens, UniProt O43613); assay: Homogeneous Time Resolved Fluorescence (HTRF)-based cell-based high throughput dose response assay for antagonists of the orexin 1 receptor (OX1R; HCRTR1). [Related pubchem assays (depositor defined):AID434989, AID435008, AID463079, AID485270, AID492963, AID492964, AID492965, AID493232, AID504717, AID504718]; format: functional;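 note: antagonism measured against Orexin-A challenge at about its EC80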
Sequence (O43613 whole entry): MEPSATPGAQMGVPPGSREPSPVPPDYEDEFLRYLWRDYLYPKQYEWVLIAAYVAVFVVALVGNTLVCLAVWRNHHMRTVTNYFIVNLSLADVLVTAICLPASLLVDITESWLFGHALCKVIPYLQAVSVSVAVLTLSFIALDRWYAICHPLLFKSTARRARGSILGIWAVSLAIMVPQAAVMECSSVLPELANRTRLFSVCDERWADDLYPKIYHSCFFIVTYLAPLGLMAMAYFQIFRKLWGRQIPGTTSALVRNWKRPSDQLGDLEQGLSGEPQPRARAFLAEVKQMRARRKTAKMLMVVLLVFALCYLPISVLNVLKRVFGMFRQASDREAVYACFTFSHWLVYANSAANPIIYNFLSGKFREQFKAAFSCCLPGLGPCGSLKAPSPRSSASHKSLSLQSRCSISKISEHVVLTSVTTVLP
Calls of active or inactive are those of the source.
The reply should name one outcome from TRUE for active, FALSE for inactive

Reference set (4 entries):
# compound, assigned.class
records = [
    ("Cc1cc(C(=O)NCc2cccc(Cl)c2)c2ccccc2n1", "TRUE"),
    ("Nc1nc(-c2sc3nc4c(cc3c2N)CCCC4)nc(N2CCOCC2)n1", "TRUE"),
    ("CCOC(=O)c1c(C)nc2c3ccccc3ccn12", "TRUE"),
    ("COc1ccc(OCc2n(CC(=O)OC3CC(C)CCC3C(C)C)c3ccccc3[n+]2C)cc1.[Cl-] (stereo not given)", "FALSE"),
]

We now examine a further compound.
Request: Hi, do you know how COc1ccccc1C(=O)Nc1nc2cc3c(cc2s1)OCCO3 came out in this test?
Response: TRUE

---

assay: Luminescence Cell-Based Dose Confirmation HTS to Identify Activators of 5'UTR Stem-Loop Driven Alpha-Synuclein mRNA Translation in H4 Neuroglioblastoma Cells. [Related pubchem assays: 1829 (Project Summary), 1814 (Primary HTS)]; type: functional
The source made the active and inactive calls.
Listed below: EC50 values for each entry.

# compound, reading
records = [
    ("O=C(Nc1ccc2c[nH]nc2c1)c1ccc(Cl)c(S(=O)(=O)N2CCOCC2)c1", "6.56 µM (active)"),
    ("Nn1c(CSc2ccccn2)nc2ccccc2c1=O", "42.9 µM (active)"),
    ("c1ccc2c(NCCc3c[nH]c4ccccc34)c3ccccc3nc2c1", "> 120 µM (not active)"),
    ("CC1(C)CC(=O)c2cc(NC=C(C(=O)c3ccccc3)C(=O)c3ccccc3)c(=O)oc2C1", "15.6 µM (active)"),
]

Lab book: EC50 of CCOC(=O)C1CCN(c2nnc(N3CCCC3=O)s2)CC1 noted as 3.42 µM (active)

// recorded EC50 for COC(=O)c1ccc(N2OC3(C)C=CC2CC3)cc1 (stereo not drawn) : 9.96 µM (active)

Entry Cc1ccc(OCCn2cnc3ccccc3c2=O)c([N+](=O)[O-])c1 — recorded EC50 = 0.247 µM (active)

response.value for Cc1ccc2[nH]c(N3CCN(C)CC3)nc2c1 (field: EC50) = 3.62 µM (active)

---

IC50 overview
molecular target: Voltage-gated N-type calcium channel alpha-1B subunit/Amyloid beta A4 precursor protein-binding family A member 1 (Homo sapiens, UniProt Q00975+Q02410); type: protein assay
Sequence (Q00975 whole entry): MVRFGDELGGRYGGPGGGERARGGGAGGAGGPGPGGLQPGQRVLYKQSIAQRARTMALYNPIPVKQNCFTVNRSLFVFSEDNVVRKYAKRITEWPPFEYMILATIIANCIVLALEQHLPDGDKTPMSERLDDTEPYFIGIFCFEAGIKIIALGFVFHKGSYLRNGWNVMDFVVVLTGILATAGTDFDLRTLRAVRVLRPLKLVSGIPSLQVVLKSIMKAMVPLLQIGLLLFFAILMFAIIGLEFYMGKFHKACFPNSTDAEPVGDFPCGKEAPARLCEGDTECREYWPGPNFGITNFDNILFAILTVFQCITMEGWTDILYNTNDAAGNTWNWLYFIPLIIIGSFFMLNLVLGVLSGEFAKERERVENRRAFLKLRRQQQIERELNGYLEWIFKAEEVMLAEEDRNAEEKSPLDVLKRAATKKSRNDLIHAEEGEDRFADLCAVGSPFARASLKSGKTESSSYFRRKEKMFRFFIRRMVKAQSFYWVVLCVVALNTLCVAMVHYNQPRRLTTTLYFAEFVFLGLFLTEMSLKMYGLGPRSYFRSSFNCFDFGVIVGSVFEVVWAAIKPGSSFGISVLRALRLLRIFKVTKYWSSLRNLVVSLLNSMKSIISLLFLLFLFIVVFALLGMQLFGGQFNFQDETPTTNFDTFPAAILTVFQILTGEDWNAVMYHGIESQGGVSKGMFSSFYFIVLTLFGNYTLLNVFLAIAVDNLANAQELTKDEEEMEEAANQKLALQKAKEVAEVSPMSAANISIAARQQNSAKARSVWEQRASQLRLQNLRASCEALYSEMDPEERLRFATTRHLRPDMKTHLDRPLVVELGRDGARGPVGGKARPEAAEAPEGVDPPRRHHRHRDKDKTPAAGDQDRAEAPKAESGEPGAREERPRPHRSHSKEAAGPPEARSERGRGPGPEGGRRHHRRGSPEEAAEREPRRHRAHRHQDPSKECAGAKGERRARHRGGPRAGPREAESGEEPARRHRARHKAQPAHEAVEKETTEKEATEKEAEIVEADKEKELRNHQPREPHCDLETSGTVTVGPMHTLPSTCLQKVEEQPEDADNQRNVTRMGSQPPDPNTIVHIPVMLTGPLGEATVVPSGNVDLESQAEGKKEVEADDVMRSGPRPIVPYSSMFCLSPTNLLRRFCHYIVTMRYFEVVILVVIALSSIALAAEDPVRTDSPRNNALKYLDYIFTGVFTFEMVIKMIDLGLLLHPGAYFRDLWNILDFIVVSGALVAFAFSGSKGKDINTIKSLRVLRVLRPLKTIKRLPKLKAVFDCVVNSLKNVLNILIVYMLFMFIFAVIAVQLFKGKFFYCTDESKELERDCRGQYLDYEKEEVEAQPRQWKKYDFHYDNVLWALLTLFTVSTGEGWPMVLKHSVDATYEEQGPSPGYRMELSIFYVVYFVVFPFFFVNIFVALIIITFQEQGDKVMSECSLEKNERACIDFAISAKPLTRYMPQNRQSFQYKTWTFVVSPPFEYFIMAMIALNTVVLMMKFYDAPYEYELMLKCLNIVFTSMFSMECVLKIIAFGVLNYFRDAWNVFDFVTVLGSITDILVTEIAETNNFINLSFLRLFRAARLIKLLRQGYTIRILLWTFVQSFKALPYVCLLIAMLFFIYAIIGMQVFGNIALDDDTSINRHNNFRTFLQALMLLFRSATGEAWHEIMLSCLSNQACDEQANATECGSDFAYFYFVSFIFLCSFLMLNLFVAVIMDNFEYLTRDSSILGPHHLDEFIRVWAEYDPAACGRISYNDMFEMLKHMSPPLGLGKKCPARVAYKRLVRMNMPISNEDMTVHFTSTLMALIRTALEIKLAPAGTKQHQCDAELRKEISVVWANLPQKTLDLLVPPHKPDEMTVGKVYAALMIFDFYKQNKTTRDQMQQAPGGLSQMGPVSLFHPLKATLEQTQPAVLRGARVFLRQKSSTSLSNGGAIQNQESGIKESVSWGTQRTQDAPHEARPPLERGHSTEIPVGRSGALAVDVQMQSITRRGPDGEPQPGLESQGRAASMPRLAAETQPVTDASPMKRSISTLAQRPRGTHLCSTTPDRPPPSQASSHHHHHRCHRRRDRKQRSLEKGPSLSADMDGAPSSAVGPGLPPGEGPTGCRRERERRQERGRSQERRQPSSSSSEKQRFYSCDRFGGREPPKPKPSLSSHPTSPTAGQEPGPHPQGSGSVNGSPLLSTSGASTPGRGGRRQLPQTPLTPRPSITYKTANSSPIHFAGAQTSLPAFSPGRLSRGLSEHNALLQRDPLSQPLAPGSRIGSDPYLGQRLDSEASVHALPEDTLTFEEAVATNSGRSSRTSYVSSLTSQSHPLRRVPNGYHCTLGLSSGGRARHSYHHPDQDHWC
Sequence (Q02410 whole entry): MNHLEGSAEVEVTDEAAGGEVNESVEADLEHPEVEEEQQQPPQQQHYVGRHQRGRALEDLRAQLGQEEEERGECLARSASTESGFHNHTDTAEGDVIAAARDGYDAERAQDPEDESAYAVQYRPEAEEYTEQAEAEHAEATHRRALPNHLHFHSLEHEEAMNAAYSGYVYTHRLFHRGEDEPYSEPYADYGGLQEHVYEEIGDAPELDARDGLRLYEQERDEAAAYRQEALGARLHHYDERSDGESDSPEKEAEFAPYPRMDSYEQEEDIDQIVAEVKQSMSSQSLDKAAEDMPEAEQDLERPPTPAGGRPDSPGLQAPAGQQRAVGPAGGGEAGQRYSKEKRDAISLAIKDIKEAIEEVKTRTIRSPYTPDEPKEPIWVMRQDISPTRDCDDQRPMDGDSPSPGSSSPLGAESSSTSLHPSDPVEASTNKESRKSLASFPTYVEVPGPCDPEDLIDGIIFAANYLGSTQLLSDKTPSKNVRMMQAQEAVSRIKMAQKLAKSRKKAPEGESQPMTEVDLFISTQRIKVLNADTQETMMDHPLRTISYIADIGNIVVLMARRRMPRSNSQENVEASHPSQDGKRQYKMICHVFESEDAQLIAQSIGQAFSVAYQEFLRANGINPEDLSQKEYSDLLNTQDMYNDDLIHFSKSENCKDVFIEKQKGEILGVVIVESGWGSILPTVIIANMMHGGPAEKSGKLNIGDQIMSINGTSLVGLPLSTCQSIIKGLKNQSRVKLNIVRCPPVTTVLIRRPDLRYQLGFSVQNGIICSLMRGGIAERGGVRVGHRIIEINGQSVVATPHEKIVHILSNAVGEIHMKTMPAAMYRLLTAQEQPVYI
Active and inactive are the calls of the source.

Below are worked cases with known answers.
# compound, IC50
data = [
    ("CC1=C(C(=O)O)N2C(=O)[C@@H](NC(=O)CCCC(=O)O)[C@H]2SC1", "34 µM (active)"),
    ("O=C1C2C(C(=O)N1/N=C/c1ccc(N3CCCCC3)o1)C1C=CC2C12CC2 (centres undefined)", "7.24 µM (active)"),
    ("COc1ccc([C@@H]2CC(=O)c3c(O)cc(O[C@@H]4O[C@H](CO[C@@H]5O[C@@H](C)[C@H](O)[C@@H](O)[C@H]5O)[C@@H](O)[C@H](O)[C@H]4O)cc3O2)cc1O [HESPERIDIN]", "9.5 µM (active)"),
]

Continue with the next compound.
Form field IC50, entry COc1ccc2cc3c(N)nn(C(=O)c4cccc([N+](=O)[O-])c4)c3nc2c1 : 12.2 µM (active)

---

Target: DNA repair protein RAD52 homolog (Homo sapiens)
Sequence (P43351 whole entry): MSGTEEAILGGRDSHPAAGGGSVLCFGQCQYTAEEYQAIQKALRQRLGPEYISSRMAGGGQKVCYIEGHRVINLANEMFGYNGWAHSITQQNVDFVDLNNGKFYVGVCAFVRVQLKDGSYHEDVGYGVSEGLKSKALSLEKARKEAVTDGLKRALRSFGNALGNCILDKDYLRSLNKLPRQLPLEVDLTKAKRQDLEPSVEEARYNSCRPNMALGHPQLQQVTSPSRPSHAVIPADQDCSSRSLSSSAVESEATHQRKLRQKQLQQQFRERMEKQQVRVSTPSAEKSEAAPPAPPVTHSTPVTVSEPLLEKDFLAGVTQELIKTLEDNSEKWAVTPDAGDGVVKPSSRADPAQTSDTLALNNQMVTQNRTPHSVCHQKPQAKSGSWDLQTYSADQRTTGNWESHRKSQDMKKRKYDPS
Format: functional, biochemical
Calls of active or inactive are those of the source.
quantity.name: AC50

Solved entries (count: 3):
# compound, AC50
records = [
    ("Cc1cc(C)c2c(N)c3cccc(C)c3nc2n1", "2.24 µM (active)"),
    ("CN(C)CCCNC(=O)/C(=C\\c1ccc(-c2ccc(Br)cc2)o1)NC(=O)c1ccccc1", "15.6 µM (active)"),
    ("c1ccc2c(NCCc3c[nH]c4ccccc34)c3ccccc3nc2c1", "1.41 µM (active)"),
]

In the following, a different compound is considered.
Form field AC50 for item CCOC(=O)c1c(C)n(-c2ccc(C)cc2)c2ccc(OCC(O)CN3CCN(C)CC3)cc12 (centres undefined) on DNA repair protein RAD52 homolog (Homo sapiens): 6.54 µM (active)

---

biological target: Corticotropin-releasing factor receptor 2/Corticotropin-releasing factor-binding protein (Homo sapiens, UniProt P24387+Q13324); test: Dose Response confirmation of uHTS hits for small molecule antagonists of the CRF-binding protein and CRF-R2 receptor complex.; format: functional; details: read-out: IC50_Mean
Sequence (Q13324 whole entry): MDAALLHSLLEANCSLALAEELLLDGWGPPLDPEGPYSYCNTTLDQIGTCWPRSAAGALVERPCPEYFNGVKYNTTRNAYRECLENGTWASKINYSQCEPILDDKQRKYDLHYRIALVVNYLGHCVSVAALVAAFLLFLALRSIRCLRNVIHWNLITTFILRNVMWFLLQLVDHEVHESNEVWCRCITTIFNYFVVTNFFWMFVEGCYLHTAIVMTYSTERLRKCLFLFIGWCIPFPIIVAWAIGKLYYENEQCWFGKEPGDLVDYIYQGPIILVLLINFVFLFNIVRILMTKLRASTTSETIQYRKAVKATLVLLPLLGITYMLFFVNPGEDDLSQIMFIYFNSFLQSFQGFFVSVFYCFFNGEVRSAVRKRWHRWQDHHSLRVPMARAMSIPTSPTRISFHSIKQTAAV
Sequence (P24387 whole entry): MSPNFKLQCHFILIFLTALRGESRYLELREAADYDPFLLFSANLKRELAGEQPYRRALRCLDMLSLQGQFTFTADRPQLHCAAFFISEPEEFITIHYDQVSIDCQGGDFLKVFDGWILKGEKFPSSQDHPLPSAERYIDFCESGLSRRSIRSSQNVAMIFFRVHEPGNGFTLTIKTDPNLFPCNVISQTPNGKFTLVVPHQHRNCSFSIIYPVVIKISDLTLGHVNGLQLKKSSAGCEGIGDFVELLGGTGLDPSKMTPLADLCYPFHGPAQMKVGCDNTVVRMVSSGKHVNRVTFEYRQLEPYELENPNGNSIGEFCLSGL
Activity calls are given as the source filed them.
Thanks in advance; please answer with one of these: label 1 (active), label 0 (inactive)

# count of solved cases: 4
# compound, assigned.class
measured = [
    ("CCc1ccc([C@@H]2CC=C(C(=O)O)[C@H](c3ccc(C(C)(C)C)cc3)N2S(=O)(=O)c2ccc(C)cc2)cc1", "label 1"),
    ("Cc1ccccc1N1CCN(C2CCCN(C(=O)c3cn4c(C)cccc4n3)C2)CC1 (stereo not given)", "label 0"),
    ("C=CCO/C(O)=C1\\C(C)=NC2(O)c3ccccc3C(=O)C12O (stereo not given)", "label 0"),
    ("COc1ccccc1Nc1ccc(S(=O)(=O)N2CCCCC2)cc1[N+](=O)[O-]", "label 0"),
]

Kindly consider the entry below.
Request: Please share the test call associated with O=C(COc1ccccc1C(=O)c1cnn(-c2ccccc2)c1)Nc1ccc2ccccc2c1 .
Response: label 0

Taken from ChEMBL document CHEMBL1201862.
